Hey, just so you know, these numbers are from a melting point compilation (Tetko et al.; mined from patent text by program, amines drawn as free bases though some values may be those of a salt).

Property: melting point

Please review the following examples before continuing.
>>> print(df.to_string())
                                   compound       property  experimental_result
0  CC(=O)Nc1nc(NC(C)=O)nc(-c2ccc(-c3ccccc3)cc2)n1  melting point             > 260 °C
1  CCc1cc(C(F)(C(F)(F)F)C(F)(F)F)cc(C)c1NC(=O)c1cccc(N)c1  melting point        143 to 145 °C
2  CCn1cc(C(=O)O)c(=O)c2cc(F)c(N3CCN(C)C(c4ccsc4)C3)cc21 (stereo not given)  melting point        226 to 228 °C
3        O=S1(=O)N=C(c2cccc(Cl)c2)c2ccccc21  melting point        149 to 150 °C
4  CCCCCCCCCCCCCCCCCCNC(=O)OC[C@H]1CC[C@@H](CO)O1 (relative stereo)  melting point          79 to 80 °C
5         CN(C)Cc1cccc(-c2csc(N=C(N)N)n2)n1  melting point        160 to 162 °C
6  N#Cc1cccc(-c2cc(-c3ccc(C#N)cc3O[N+](=O)[O-])on2)c1  melting point        198 to 199 °C
7  CCOC(=O)c1c(C(F)(F)F)nc(C(F)F)c(C(=O)OC)c1NCC(F)(F)F  melting point          64 to 66 °C

Provide measured melting point value, entry: NC(C(=O)O)c1ccc(C(=O)O)cc1N1CCCC1 (stereo not given) 187 to 190 °C

Provide measured melting point value, entry: Cc1cnc(NS(=O)(=O)c2cccc(Cl)c2Cl)c(OCc2ccco2)n1 127 to 129 °C

###

Property: melting point

>>> print(df.to_string())
                                   molecule  experimental_result
0  CN=C(Cc1ccccc1)N1CC2C(=O)CCC(c3ccccc3)(c3ccccc3)C2C1 (stereo not given)               110 °C
1                 CCOC(=O)COc1cccc2c1CCC2=O          91 to 93 °C
2  COc1ccc(C(=O)/C=C/c2c(-c3ccc(F)cc3)nc3sccn23)cc1OC        221 to 223 °C
3  Cc1cc([N+](=O)[O-])c(C)cc1SCc1cccc(C(F)(F)F)c1          85 to 87 °C

Continue with the next molecule.
Provide measured melting point value, entry: C[C@@H]1OCCN(c2cc(N3CCOCC3)nc(-n3c(CO)nc4ccccc43)n2)[C@@H]1C (relative stereo) 125 to 128 °C

###

Documented melting point across a set of compounds

Please review the following examples before continuing.
>>> df
                                   compound  experimental_result
0               CON(C)C(=O)CNC(=O)OC(C)(C)C          92 to 95 °C
1                  CC(C)Cn1cc(C(N)=O)c(N)n1        154 to 158 °C
2  COC(=O)c1c(C)nc2c(C)cc(C)cc2c1-c1ccccc1Cl        119 to 120 °C

Provide measured melting point value, entry: CCc1cc(Oc2ccc(NC(=O)Nc3ccc(C)cc3)cc2)ncn1 160 to 162 °C

Provide measured melting point value, entry: CCOC(=O)C1(C(=O)OCC)C(CC)CC(O)N1C(C)=O (stereo unspecified) 106 to 109 °C

Provide measured melting point value, entry: Cc1cc(C#N)cc(C)c1OCCCC1=NNC(=O)CC1 124 °C

Provide measured melting point value, entry: Cn1nnc(-c2cccc([N+](=O)[O-])c2)n1 105 °C

Provide measured melting point value, entry: CCOC(=O)c1c(Cl)c(Cl)c(Cl)c(Cl)c1C#N 74 to 75 °C

Provide measured melting point value, entry: O=C(O)c1ccc2cc(OCCCCCCc3cccc(OCc4ccccc4)c3OCc3ccccc3)ccc2c1 66 to 68 °C

Provide measured melting point value, entry: O=C(C1COc2ccccc2O1)N1CCNCC1 (stereo unspecified) 84 to 85 °C

Provide measured melting point value, entry: O=Cc1c(-c2ccc(Cl)cc2)nsc1-c1ccccc1 148 to 149 °C

###

Property: melting point

Please review the following examples before continuing.
                                   compound       property  experimental_result
0  CSc1nc2ccc3c(c2o1)C(CCNC(C)=O)CC3 (stereo unspecified)  melting point        115 to 117 °C
1  COc1ccc(CNc2nc(N3CCCC3CO)nnc2C(=O)NCc2ncccn2)cc1Cl (stereo unspecified)  melting point        170 to 173 °C
2         CSc1ccc2c(C(=O)C(F)(F)F)c[nH]c2c1  melting point        237 to 239 °C
3  CN1CCC(c2[nH]c(=O)c3ccccc3c2-c2ccccc2F)CC1  melting point        247 to 249 °C
4   CSc1noc(-c2ccc(OCCCCOc3ccccc3)cc2)c1C#N  melting point        113 to 114 °C
5  CS(=O)(=O)Nc1cc2c(cc1Oc1ccccc1)C(=O)CCO2  melting point        143 to 144 °C
6  CCOC(=O)C1(CCCN(C)C)CCCCC1(O)c1ccccc1 (stereo unspecified)  melting point          97 to 99 °C
7  CCN(CC)Cc1cccn1N(C)c1ccnc2cc(C(F)(F)F)ccc12  melting point          64 to 66 °C
8  O=C(Cc1c[nH]c2ccccc12)NCCN1CCC(Nc2nc3ccccc3n2Cc2ccc(F)cc2)CC1  melting point               194 °C
9              FC(F)(F)c1n[nH]c(C(F)(F)F)n1  melting point          74 to 75 °C

Provide measured melting point value, entry: O=C1NC(=O)C(Cc2ccc(CCNCC(O)COc3ccc(OCc4ccccc4)cc3)cc2)S1 (stereo unspecified) 51 to 53 °C

Provide measured melting point value, entry: C#CCOC(=O)c1ncn2c1CN(C)C(=O)c1c(Cl)cccc1-2 198 to 200 °C

Provide measured melting point value, entry: O=C(NCc1ccc(Cl)cc1)c1cn(Cc2ccccc2)c2sc(CN3CCOCC3)cc2c1=O 225 to 226 °C

Provide measured melting point value, entry: N#Cc1ccc(CN2CC=C(/C=C/c3ccc(F)cc3)CC2)cc1 150 to 152 °C

Provide measured melting point value, entry: C[C@@H](O)c1nccc(N2CCN(Cc3ccccn3)CC2)n1 68 to 70 °C

Provide measured melting point value, entry: Cc1c(C(=O)Nc2ccc(N(CCO)CCO)c(C#N)c2)c2cc(F)ccc2n1CC(=O)O 150 to 153 °C

Provide measured melting point value, entry: [O-][N+]1=C(c2ccccc2)c2cc(C(F)(F)F)ccc2-n2c(CBr)nnc2C1 185 to 210 °C

Provide measured melting point value, entry: O=C(NN=C(c1ccc(Cl)cc1)c1ccc(OC(F)(F)C(Cl)Cl)cc1)c1ccccc1 121 to 122 °C

Provide measured melting point value, entry: O=c1[nH]sc2c1CCC2 177 to 179 °C

Provide measured melting point value, entry: COc1ccc(CCOc2cc(-c3cccc(C(=O)O)c3)ccn2)cc1OC 148 to 149 °C

Provide measured melting point value, entry: O=C(O)CCCC1(c2ccc(F)cc2)OCCO1 65 to 67 °C

Provide measured melting point value, entry: CC(C)(CO)Oc1ccc(CNc2ccc(Cl)cc2)cc1 84 to 91 °C

Provide measured melting point value, entry: CC1C(=O)N(CCO)C(=S)N1c1ccc(Oc2ccccc2)cc1 (stereo unspecified) 120 °C

Provide measured melting point value, entry: COc1cc2ccsc2c(Cl)c1Cl 103 to 104 °C

Provide measured melting point value, entry: Cc1nn(C)c(O)c1C(=O)c1ccc(S(C)(=O)=O)c(-c2cnco2)c1Cl 236 to 241 °C

Provide measured melting point value, entry: Cc1ccc(S(=O)(=O)N(C)c2ccc(F)cc2[N+](=O)[O-])cc1 93.5 to 94.5 °C

Provide measured melting point value, entry: COc1ccccc1-n1c(=O)[nH]c2c(C(N)=O)nc(-c3ccc4cc[nH]c4c3)nc21 203 to 204 °C

Provide measured melting point value, entry: CCOC(=O)C=Cc1cn(C(=O)OC(C)(C)C)c2cnc(-n3cncn3)cc12 178 to 181 °C

Provide measured melting point value, entry: CC(=O)c1ccc(-c2ccc(N(c3ccccc3)c3ccccc3)cc2)cc1 97 to 98 °C

Provide measured melting point value, entry: On1c(-c2ccncc2)nc2ccc(Cn3ccnc3)cc21 198 °C

Provide measured melting point value, entry: Fc1ccc(-c2c[nH]c3ccccc23)cc1 98 to 100 °C

Provide measured melting point value, entry: CNC(=C[N+](=O)[O-])NCCCSc1nc(C)co1 92 to 93 °C
